# TEST TARGET: OR7G3 (Homo sapiens) (UniProt Q8NG95)
# Sequence (Q8NG95 whole entry): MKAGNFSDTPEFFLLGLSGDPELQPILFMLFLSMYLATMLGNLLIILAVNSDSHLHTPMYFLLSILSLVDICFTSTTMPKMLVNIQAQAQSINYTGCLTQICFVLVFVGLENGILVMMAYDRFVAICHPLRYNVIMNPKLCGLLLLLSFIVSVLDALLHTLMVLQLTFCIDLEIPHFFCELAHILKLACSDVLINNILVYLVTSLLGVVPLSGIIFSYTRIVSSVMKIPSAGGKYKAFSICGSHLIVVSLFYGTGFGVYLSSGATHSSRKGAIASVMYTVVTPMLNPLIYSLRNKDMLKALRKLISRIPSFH
# SETUP CONDITIONS: stereoisomer not certain
REPORTED METRIC: odorant receptor agonist call

IN: Tell us which odorant receptor agonist call value is on record for CC1=NC(C)C(C)S1 (stereo not drawn)
OUT: inactive

IN: Given CCC(S)C(C)CO (stereo not drawn) , respond with its odorant receptor agonist call.
OUT: inactive

IN: Please supply the value of reported odorant receptor agonist call for the item `Cc1cnc(C)c(C)n1`
OUT: inactive

IN: Identify odorant receptor agonist call associated with the compound CC(CO)CS (stereo not drawn)
OUT: inactive

IN: In one line, give reported odorant receptor agonist call of the entry CC1=C(O)C(=O)C(C)O1 (stereo not drawn) .
OUT: inactive

---
IN: Give reported odorant receptor agonist call value for CCCCCC(=O)C(C)C(C)=O (stereo not drawn)
OUT: inactive

IN: Please look at this compound and report its odorant receptor agonist call: CCCCC(S)C(C)CO (stereo not drawn)
OUT: inactive

IN: Check the records and state odorant receptor agonist call for CC1=C(O)C(=O)OC1C (stereo not drawn)
OUT: inactive
